# Measurement Target: T1, biotin-labeled human CD137 fused to human IgG1 Fc fragment (human, biotin-labeled)
# T1 construct: also called human CD137-Fc; biotin-human CD137-Fc; not shown: human IgG1 Fc fragment
# Assay Name: competitive ELISA on biotin-human CD137-Fc; competitor free CD3e 62.5 pmol
Measured Metric: ELISA signal
Response field accepts a number only; no unit should be typed.

INSERT INTO assay_data (binder, reported_value) VALUES
  ('dBBDu193/L127 (antibody, V domains shown, IgG format; constant regions not specified; also called dBBDu_193 dBBDu.L127) VH: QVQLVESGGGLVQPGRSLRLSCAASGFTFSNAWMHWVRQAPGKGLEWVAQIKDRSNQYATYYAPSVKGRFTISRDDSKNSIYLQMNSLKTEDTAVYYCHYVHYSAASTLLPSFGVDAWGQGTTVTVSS VL: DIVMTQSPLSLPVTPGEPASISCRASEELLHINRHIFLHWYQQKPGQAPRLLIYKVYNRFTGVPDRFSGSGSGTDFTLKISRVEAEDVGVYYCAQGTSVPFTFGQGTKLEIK', 2470),
  ('dBBDu186/L108 (antibody, V domains shown, IgG format; constant regions not specified) VH: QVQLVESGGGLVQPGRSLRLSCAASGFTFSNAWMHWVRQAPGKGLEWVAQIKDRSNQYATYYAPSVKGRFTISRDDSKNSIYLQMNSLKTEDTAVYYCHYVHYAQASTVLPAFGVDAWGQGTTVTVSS VL: DIVMTQSPLSLPVTPGEPASISCRTSEELLHINRFTFLHWYQQKPGQAPRLLIYKVSNRFMGVPDRFSGSGSGTDFTLKISRVEAEDVGVYYCAQGSAVPFTFGQGTKLEIK', 50800),
  ('dBBDu189/L126 (antibody, V domains shown, IgG format; constant regions not specified) VH: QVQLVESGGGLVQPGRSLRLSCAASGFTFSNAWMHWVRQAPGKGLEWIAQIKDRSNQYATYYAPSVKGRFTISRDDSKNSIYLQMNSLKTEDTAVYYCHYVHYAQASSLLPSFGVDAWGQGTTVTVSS VL: DIVMTQSPLSLPVTPGEPASISCRTSEELLHINRYIFLHWYQQKPGQAPRLLIYKVQNRFSGVPDRFSGSGSGTDFTLKISRVEAEDVGVYYCAQGSAVPFTFGQGTKLEIK', 9750),
  ('dBBDu193/L132 (antibody, V domains shown, IgG format; constant regions not specified; also called dBBDu_193 dBBDu.L132) VH: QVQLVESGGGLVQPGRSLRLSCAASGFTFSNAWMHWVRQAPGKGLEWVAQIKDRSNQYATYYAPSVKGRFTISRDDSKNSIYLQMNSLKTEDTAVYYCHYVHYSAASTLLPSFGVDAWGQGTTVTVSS VL: DIVMTQSPLSLPVTPGEPASISCQTSEELVHINRFIFLHWYQQKPGQAPRLLIYKVSNRFSGVPDRFSGSGSGTDFTLKISRVEAEDVGVYYCAQGTSVPFTFGQGTKLEIK', 10400),
  ('dBBDu186/L106 (antibody, V domains shown, IgG format; constant regions not specified) VH: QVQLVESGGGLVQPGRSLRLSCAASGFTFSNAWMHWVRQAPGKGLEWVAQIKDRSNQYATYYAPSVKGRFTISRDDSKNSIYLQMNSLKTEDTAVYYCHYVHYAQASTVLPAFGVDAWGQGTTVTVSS VL: DIVMTQSPLSLPVTPGEPASISCSTSEELLHINRFIFLHWYQQKPGQAPRLLIYKVANRFMGVPDRFSGSGSGTDFTLKISRVEAEDVGVYYCAQGSQVPFTFGQGTKLEIK', 3090);

Value of measured ELISA signal for the entry dBBDu186/L100 (antibody, V domains shown, IgG format; constant regions not specified) VH: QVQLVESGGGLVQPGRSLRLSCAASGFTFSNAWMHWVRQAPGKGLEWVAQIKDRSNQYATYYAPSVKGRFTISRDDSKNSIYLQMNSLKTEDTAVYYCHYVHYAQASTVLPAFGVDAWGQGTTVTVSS VL: DIVMTQSPLSLPVTPGEPASISCSASEELVHINRYIFLHWYQQKPGQAPRLLIYKVYNRFMGVPDRFSGSGSGTDFTLKISRVEAEDVGVYYCGQGSSVPFTFGQGTKLEIK : 88900

Value of measured ELISA signal for the entry dBBDu189/L119 (antibody, V domains shown, IgG format; constant regions not specified) VH: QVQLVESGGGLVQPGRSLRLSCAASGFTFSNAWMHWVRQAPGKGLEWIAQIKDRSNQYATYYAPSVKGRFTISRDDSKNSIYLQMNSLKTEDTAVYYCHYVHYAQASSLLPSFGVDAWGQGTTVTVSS VL: DIVMTQSPLSLPVTPGEPASISCTASQELVHINRFIFLHWYQQKPGQAPRLLIYKVSNRFIGVPDRFSGSGSGTDFTLKISRVEAEDVGVYYCAQGSQVPFTFGQGTKLEIK : 20400

Value of measured ELISA signal for the entry dBBDu167/L094 (antibody, V domains shown, IgG format; constant regions not specified; also called dBBDu_167 dBBDu.L094) VH: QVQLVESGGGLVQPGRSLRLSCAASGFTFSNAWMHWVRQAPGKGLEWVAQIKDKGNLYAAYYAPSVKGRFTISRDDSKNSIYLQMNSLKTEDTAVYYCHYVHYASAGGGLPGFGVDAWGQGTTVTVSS VL: DIVMTQSPLSLPVTPGEPASISCYASEELLHINRHIYLHWYQQKPGQAPRLLIYKVYNRFNGVPDRFSGSGSGTDFTLKISRVEAEDVGVYYCAQGSSVPFTFGQGTKLEIK : 4370

Value of measured ELISA signal for the entry dBBDu186/L098 (antibody, V domains shown, IgG format; constant regions not specified) VH: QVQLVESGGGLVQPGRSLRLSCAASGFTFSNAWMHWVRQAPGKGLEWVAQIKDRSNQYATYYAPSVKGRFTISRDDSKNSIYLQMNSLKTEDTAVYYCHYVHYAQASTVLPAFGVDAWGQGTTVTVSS VL: DIVMTQSPLSLPVTPGEPASISCAASEELVHINRYIFLHWYQQKPGQAPRLLIYKVSNRFIGVPDRFSGSGSGTDFTLKISRVEAEDVGVYYCAQGSQVPFTFGQGTKLEIK : 15900
